B1: FBXO39 (parent)
chain: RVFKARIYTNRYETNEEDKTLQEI

- Variants of: B1
- assay-comment: protein stability index of a GFP-peptide fusion (GPS, HEK-293T) (PSI 1-6); higher = more stable;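 also: lentivirally expressed fusions sorted by FACS into six bins by GFP to DsRed ratio, PSI derived from sequencing read proportions per bin multiplied by bin number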
- recorded-conditions: c terminus: a fixed tail appended
readout-type: protein stability index
Keep it simple and answer with nothing but the number.

*Q* Determine its reported protein stability index: Y8T
*A* 2.93

*Q* For the variant F3L , give its measured protein stability index value.
*A* 3.05

*Q* # return recorded protein stability index for input E16R
*A* 2.33

*Q* Give the reported value of protein stability index for this record: E23K
*A* 2.74

*Q* Recall and state the measured protein stability index for Y12S .
*A* 3.36

*Q* Return value of protein stability index for input A5D , no commentary.
*A* 4.39

*Q* Give protein stability index for D18G
*A* 2.53

*Q* Specify protein stability index for R11K and stop.
*A* 2.88

*Q* Answer with the recorded protein stability index for the variant listed here: T14K
*A* 2.5

*Q* State its protein stability index for this variant: T20C
*A* 2.55

*Q* Identify measured protein stability index corresponding to A5T
*A* 2.1

*Q* Supply recorded protein stability index for N10A here.
*A* 2.31

*Q* Supply recorded protein stability index for N15E here.
*A* 2.96

*Q* Identify measured protein stability index associated with E13H
*A* 1.85

*Q* Input A5E , output reported protein stability index.
*A* 4.48

*Q* Please give measured protein stability index of the following entry: I7W
*A* 3.15

*Q* Given the variant R11D , write its reported protein stability index.
*A* 3.23

*Q* For the variant I7T , give its measured protein stability index value.
*A* 3

*Q* Quick one: give measured protein stability index for N15D
*A* 2.86

*Q* Answer with the recorded protein stability index of N15I only.
*A* 2.9

*Q* Write down protein stability index measured for item F3Q
*A* 4.59

*Q* Report protein stability index for D18E
*A* 2.48
